test system: HeLa; assay: Antiproliferative activity against human HeLa cells expressing c-Met after 48 hrs by MTT assay; assay type: functional, cell-based
Examples of compounds with documented IC50 follow.
Output spec: scalar in µM, unitless text.

compound	experimental.system	IC50, µM
Cn1ccc2c(Oc3ccc(NC(=O)c4cn(-c5ccc(Br)cc5F)c5ncccc5c4=O)cc3F)ccnc21	HeLa	61.2

In: Look up IC50: "O=C(Nc1ccc(Oc2ccnc3[nH]ccc23)cc1)c1cn(-c2ccc(F)cc2)c2ncccc2c1=O"
Out: 86

In: Another compound to check: "O=C(Nc1ccc(Oc2ccnc3[nH]ccc23)c(F)c1)c1cn(-c2ccc(F)cc2)c2ncccc2c1=O"
Out: 14.9

In: Another compound to check: "Cn1ccc2c(Oc3ccc(NC(=O)c4cn(-c5ccc(C(F)(F)F)cc5Cl)c5ncccc5c4=O)cc3)ccnc21"
Out: 80.3

In: Another compound to check: "O=C(Nc1ccc(Oc2ccnc3[nH]ccc23)c(F)c1)c1cn(-c2ccc(Br)cc2)c2ncccc2c1=O"
Out: 10.9

In: Another compound to check: "O=C(Nc1ccc(Oc2ccnc3[nH]ccc23)c(F)c1)c1cn(-c2ccccc2)c2ncccc2c1=O"
Out: 29.3

In: Another compound to check: "COc1ccc(-n2cc(C(=O)Nc3ccc(Oc4ccnc5[nH]ccc45)cc3)c(=O)c3cccnc32)cc1"
Out: 95.4

----------
test system: HeLa; assay: Antiproliferative activity against human HeLa cells expressing c-Met after 48 hrs by MTT assay; format: functional, cell-based
Decide using IC50 alone. Strictly below 50 µM: 1.0. Equal to or above 50 µM: 0.0.

In: Decide: IC50 of "O=C(Nc1ccc(Oc2ccnc3[nH]ccc23)c(F)c1)c1cn(-c2ccc(C(F)(F)F)cc2Cl)c2ncccc2c1=O" strictly below 50 µM?
Out: 1.0

----------
Examples of molecules with documented pIC50 follow.
test system: HeLa; assay: Antiproliferative activity against human HeLa cells expressing c-Met after 48 hrs by MTT assay; assay type: functional, cell-based
Interpret pIC50 as the negative base-10 log of the concentration measured in mol/L.

molecule	pIC50
O=C(Nc1ccc(Oc2ccnc3[nH]ccc23)cc1)c1cn(-c2ccc(F)c(Cl)c2)c2ncccc2c1=O	4.85
O=C(Nc1ccc(Oc2ccnc3[nH]ccc23)c(F)c1)c1cn(-c2ccc(F)c(Cl)c2)c2ncccc2c1=O	4.27
Cn1ccc2c(Oc3ccc(NC(=O)c4cn(-c5ccc(Cl)cc5)c5ncccc5c4=O)cc3)ccnc21	4.20
O=C(Nc1ccc(Oc2ccnc3[nH]ccc23)cc1)c1cn(-c2ccc(Cl)cc2)c2ncccc2c1=O	4.27
COc1cc2nccc(Oc3ccc(NC(=O)C4(C(=O)Nc5ccc(F)cc5)CC4)cc3)c2cc1OC [CABOZANTINIB]	4.10

In: Give recorded pIC50 with HeLa for the following molecule: "Cn1ccc2c(Oc3ccc(NC(=O)c4cn(-c5ccc(Br)cc5)c5ncccc5c4=O)cc3)ccnc21"
Out: 4.30

In: Another molecule to check: "COc1ccc(-n2cc(C(=O)Nc3ccc(Oc4ccnc5[nH]ccc45)c(F)c3)c(=O)c3cccnc32)cc1"
Out: 4.70

In: Another molecule to check: "O=C(Nc1ccc(Oc2ccnc3[nH]ccc23)cc1)c1cn(-c2ccccc2)c2ncccc2c1=O"
Out: 4.10

In: Another molecule to check: "O=C(Nc1ccc(Oc2ccnc3[nH]ccc23)cc1)c1cn(-c2ccc(C(F)(F)F)cc2Cl)c2ncccc2c1=O"
Out: 4.30

In: Another molecule to check: "O=C(Nc1ccc(Oc2ccnc3[nH]ccc23)cc1)c1cn(-c2ccc(Br)cc2)c2ncccc2c1=O"
Out: 4.31

In: Another molecule to check: "Cn1ccc2c(Oc3ccc(NC(=O)c4cn(-c5ccc(F)cc5)c5ncccc5c4=O)cc3)ccnc21"
Out: 4.12

In: Another molecule to check: "Cn1ccc2c(Oc3ccc(NC(=O)c4cn(-c5ccccc5)c5ncccc5c4=O)cc3)ccnc21"
Out: 4.11
